Entry source: ChEMBL document CHEMBL1139964

Recorded log10 Solubility, one value per entry.
Experiment: Solubility in water
Type: physicochemical
Settings: buffer
OUTCOME_MEASURE: log10 Solubility (log10 of the value in g/L)

{"columns": ["CHEMICAL_STRUCTURE", "OUTCOME_MEASURE", "OBSERVED_RESULT"],
 "data": [
  ["Nc1ccc(Br)cc1", "log10 Solubility", 2.85],
  ["Nc1ccc2cc3ccccc3cc2c1", "log10 Solubility", 0.11],
  ["Nc1ccc2ccc3cccc4ccc1c2c34", "log10 Solubility", -0.24],
  ["Nc1ccc2c(c1)Cc1ccccc1-2", "log10 Solubility", 0.94],
  ["Nc1cccc2cc3ccccc3cc12", "log10 Solubility", 0.41],
  ["Nc1ccc2c3c(cccc13)-c1ccccc1-2", "log10 Solubility", -0.15]
]}
